system: DCN1-like protein 1 (Homo sapiens, UniProt Q96GG9)
Sequence (Q96GG9 whole entry, the tested form may be a part): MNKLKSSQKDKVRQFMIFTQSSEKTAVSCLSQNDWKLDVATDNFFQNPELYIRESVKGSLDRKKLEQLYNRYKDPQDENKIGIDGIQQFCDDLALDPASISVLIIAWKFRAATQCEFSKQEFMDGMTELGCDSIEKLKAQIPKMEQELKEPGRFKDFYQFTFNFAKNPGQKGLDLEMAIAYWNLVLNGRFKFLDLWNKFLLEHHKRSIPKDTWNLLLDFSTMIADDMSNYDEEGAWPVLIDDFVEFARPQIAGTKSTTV
protocolDetails: Displacement of (S)-N1-((19S,22S)-26-Amino-19-carbamoyl-1-(3',6'-dihydroxy-3-oxo-3H-spiro[isobenzofuran-1,9'-xanthen]-5-yl)-1,13,21-trioxo-5,8,11-trioxa-2,14,20-triazahexacosan-22-yl)-2-((2S,5S,8S,11S,14S,17S,20S,23S,26S)-2-(3-amino-3-oxopropyl)-5,20-bis(4-aminobutyl)-14-benzyl-23-((S)-sec-butyl)-11-(hydroxymethyl)-8,17-diisobutyl-26-(naphthalen-2-ylmethyl)-4,7,10,13,16,19,22,25,28-nonaoxo-3,6,9,12,15,18,21,24,27-nonaazanonacosanamido)pentanediamide from recombinant N-terminal His6-tagged human DCN1 (58 to 259 residues) expressed in Escherichia coli Rosetta2 cells after 30 mins by fluorescence polarization assay
Non-standard residues stand in square brackets, D forms with d. Residues, ends and D or L forms follow the SMILES beside them. *: point of attachment. 2Nal = N[C@@H](Cc1ccc2ccccc2c1)C(=O)O; Isobutyryl = CC(C)C(=O)*; Propionyl = CCC(=O)*; Butyryl = CCCC(=O)*
measurementType: IC50 (µM)
Numbers only; they are read as µM.

# compound, valueUnit, IC50
measured = [
    ("CCC(=O)N[C@@H](Cc1ccc2ccccc2c1)C(=O)N[C@H](C(=O)N[C@@H](CCCCN)C(=O)N[C@@H]1CCCc2ccccc21)[C@@H](C)CC", "µM", 0.55),
    ("CC[C@H](C)[C@H](NC(=O)[C@H](Cc1ccc2ccccc2c1)NC(=O)C(C)C)C(=O)N[C@@H](CCCCN)C(=O)N[C@@H](CC(C)C)C(N)=O (Isobutyryl-[2Nal]IKL-NH2)", "µM", 16.5),
    ("CC[C@H](C)[C@H](NC(=O)[C@H](Cc1ccc2ccccc2c1)NC(C)=O)C(=O)N[C@@H](CCCCN)C(=O)N[C@@H](CC(C)C)C(N)=O (Ac-[2Nal]IKL-NH2)", "µM", 16.8),
    ("CCCC(=O)N[C@@H](Cc1ccc2ccccc2c1)C(=O)N[C@H](C(=O)N[C@@H](CCCCN)C(=O)N[C@@H](CC(C)C)C(N)=O)[C@@H](C)CC (Butyryl-[2Nal]IKL-NH2)", "µM", 37),
    ("CCC(=O)N[C@@H](Cc1ccc2ccccc2c1)C(=O)N[C@H](C(=O)N[C@@H](CCCCN)C(=O)NC(c1ccccc1)c1ccccc1)C1CCCCC1", "µM", 0.613),
]

Give a short answer stating reported IC50 for CCC(=O)N[C@@H](Cc1ccc2ccccc2c1)C(=O)N[C@H](C(=O)N[C@@H](CCCCN)C(=O)N[C@@H](CC(C)C)C(N)=O)[C@@H](C)CC (Propionyl-[2Nal]IKL-NH2) .
5.2

Give a short answer stating reported IC50 for CCC(=O)N[C@@H](Cc1ccc2ccccc2c1)C(=O)N[C@@H](CC(F)(F)F)C(=O)N[C@@H](CCCCN)C(=O)NC(c1ccccc1)c1ccccc1 .
3.27

Give a short answer stating reported IC50 for CCC(=O)N[C@@H](Cc1nc2ccc(Cl)cc2s1)C(=O)N[C@H](C(=O)N[C@@H](CCCCN)C(=O)NC(c1ccccc1)c1ccccc1)C1CCCC1 .
0.132
